These data points were gathered from ChEMBL document CHEMBL1157539.

- Test Protocol: GSK_TCMDC: Inhibition Frequency Index (IFI). The number of non-kinase HTS assays where a compound showed > 50 % inhibition, expressed as a percentage of the number of such assays in which the compound was tested
- Assay type: functional
Over roughly 13,000 compounds, “IFI” has its median near 4; the highest 2% begin near 17. The sample as a whole holds a higher share of the highest values than the screen did.
Decide using IFI alone. Strictly below 7%: t. Equal to or above 7%: f.

// below: answered compounds
Compound	Class
Cc1cccn2c(=O)c3cc(C(=O)NCCc4ccccc4)c(=N)n(CCCOC(C)C)c3nc12	t
C=CCNC(CCCCC)c1ccc(OCCOc2ccc(C(CCCCC)NCC=C)cc2)cc1 (centres undefined)	f
O=S(=O)(NCCN1CCCC1)c1ccc(-c2cccc(CNCCc3cccs3)c2)cc1	f
CCCc1cc(OCCCOc2ccccc2)ccc1OCCCON1C(=N)N=C(N)NC1(C)C	f
CC(C)c1cn2c3c(cc(C(=O)N[C@@H](Cc4ccccc4)[C@H](O)CNC4CCCCC4)cc13)N(C)S(=O)(=O)CC2	t

Prompt: Is 7% strictly greater than the compound's reported IFI? compound: CCN(CC)CCCN(CCCN(CC)CC)c1cc(C)nc(Nc2ccc3cc(Br)ccc3c2)n1
Completion: t

Prompt: Is 7% strictly greater than the compound's reported IFI? compound: CCCCC(NCC)c1ccc(OCCOc2ccc(C(CCCC)NCC)cc2)cc1 (centres undefined)
Completion: f

Prompt: Is 7% strictly greater than the compound's reported IFI? compound: N=C1N=C(N)NC2(CCCCC2)N1OCCCOc1cccc2ccccc12
Completion: f

Prompt: Is 7% strictly greater than the compound's reported IFI? compound: CN(C)CCOc1ccc2c(=O)cc(CCc3cccc(F)c3F)n(CC(=O)N(C)Cc3ccc(-c4ccc(C(F)(F)F)cc4)cc3)c2c1
Completion: t

Prompt: Is 7% strictly greater than the compound's reported IFI? compound: N=C1N=C(N)NC2(CCCCC2)N1OCCOc1ccc(Cc2ccccc2)cc1
Completion: f

Prompt: Is 7% strictly greater than the compound's reported IFI? compound: CCCCCOc1ccc(C(O)C(CCC(CN2CCCCCC2)C(O)c2ccc(OCCCCC)cc2)CN2CCCCCC2)cc1 (centres undefined)
Completion: f

Prompt: Is 7% strictly greater than the compound's reported IFI? compound: Nc1ccc2[nH]cc(C3CCN(CCC4CCN(C(=O)/C=C/c5ccc(Cl)c(Cl)c5)CC4)CC3)c2n1
Completion: f

Prompt: Is 7% strictly greater than the compound's reported IFI? compound: CCCCCCC(N)c1ccc(OCCCOc2ccc(C(N)CCCCCC)cc2)cc1 (centres undefined)
Completion: f

Prompt: Is 7% strictly greater than the compound's reported IFI? compound: CCCc1cc(C(C)=O)ccc1OCCCON1C(=N)N=C(N)NC1(C)C
Completion: t

Prompt: Is 7% strictly greater than the compound's reported IFI? compound: CC1(C)NC(N)=NC(=N)N1OCCOc1ccc(Cc2ccccc2)cc1
Completion: t

Prompt: Is 7% strictly greater than the compound's reported IFI? compound: Cc1[nH]cnc1CSCCN/C(=N\C#N)NCCCCCCCCN/C(=N/C#N)NCCSCc1nc[nH]c1C
Completion: t

Prompt: Is 7% strictly greater than the compound's reported IFI? compound: CCCCCC(NCCCC)c1ccc(OCCOc2ccc(C(CCCCC)NCCCC)cc2)cc1 (centres undefined)
Completion: f

Prompt: Is 7% strictly greater than the compound's reported IFI? compound: CCOC(=O)c1ccc(NC(=O)Nc2ccc(-c3cccc(-c4nc5cc(F)ccc5[nH]4)c3)cc2)cc1
Completion: t
